All figures here come from patent US20190071499A1.

The reader will find reported IC 50 (ng/ml), ISRE dual luciferase reporter assay values listed item by item below.
- TEST_TARGET: human IFN-α21 (human, UniProt P01568 24-189)
- Sequence (P01568 24-189 limits assumed): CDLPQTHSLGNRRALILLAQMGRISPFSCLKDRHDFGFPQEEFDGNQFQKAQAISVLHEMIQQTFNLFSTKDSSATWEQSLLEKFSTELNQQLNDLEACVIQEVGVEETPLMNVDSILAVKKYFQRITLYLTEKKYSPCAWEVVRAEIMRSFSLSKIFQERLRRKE
- EXPERIMENT_SUMMARY: cell-based or functional assay
REPORTED_METRIC: IC 50 (ng/ml), ISRE dual luciferase reporter assay (ng/mL)

BINDER: 50E11 (antibody, human IgG1, kappa, V domains shown) VH: QVQLVQSGAEMKKPGSSVKVSCKDFGGTFSVYGVNWVRQAPGQGLEWMGGLIPVIGPANYAQKFQGRITITADESTSTAYMELSSLRFDDTAIYYCVRDDNEYWGQGTLVTVSS VL: EMVLTQSPATLSLSPGERATLSCRASQTVSTFLAWYQQKPGQVPRLLVYDISSRANGTPARFSGGGSGTDFTLTISSLELEDFAVYYCQWRSNWPPSLTFGGGTRVEIKR
READING: 3.05
//
BINDER: 12H5 (antibody, human IgG1, kappa, V domains shown) VH: QVQLIQSGPEVKRPGASVKVSCKASENTFDTHYINWVRQAPGQGLTWLGWLNPTTGKTGFPQKFKGRVILTSDTSLNTAYMEVSRLTSEDTAVYFCARVLKLSDEYNYGFDVWGQGTTVIVSS VL: DIQVTQSPSSLSASIGDRVTITCRASQNILTFINWYQHKPGKAPKLLIYAASVLQNEVPSRFSGSGSGTDFTLTITSLQPDDFGTYYCQQTYLTPQCSFGQGTKVEIKR
READING: 13
//
BINDER: 26B9 (antibody, human IgG1, kappa, V domains shown, human-derived IgG1, kappa; also called MAB 26B9; hMAB 26B9) VH: QILLQESGPGLVKPTETLSLTCSVSGDSISDSSHYWAWIRQPPGKGPEWIGSVYFSSMTHYNPSLKSRVSISVDKPKNQFSLKVTSVTVADTATYYCARQALARVGAMNWFDPWGQGSLVTVSS VL: DIIMTQSPDSLPVSLGEGVTINCKSSQSVFFTSSNKSCLAWYQQKPGKSPKLLIYWASTRQSGVPDRFRGSGSGTDFSLTITSLQAEDVAVYFCQQCQTSPPTFGGGTRLEIKR
READING: 4.65
